target.system: T1, human CD47, full length, on transfected cells (human, UniProt Q08722 19-323)
T1 construct: whole, on cells; also called CHOK1-hCD47
test.summary: FACS CHOK1-hCD47; Ab 0.32 nM
Below: a set of entries, each annotated with reported mean fluorescence intensity.
measured.quantity: mean fluorescence intensity

- binder: "54G8G6 (antibody, V domains shown, Murine hybridoma antibody purified on protein G) VH: QVQLQQPGADLVKPGASVKMSCKASGYTFTSYWIIWVKQRPGQGLEWIGDINPGRGSPNYNEKFKRKATLTVDTSSSTAYMQLSSLTSEDSAVYYCVRGGLRRFDHWGQGTLVTVSA VL: ENVLTQSPAIMSASPGEKVTMTCRASSSVSSSYLHWYQQKSGASPKLWIYSTSTLASGVPARFSGSGSGTSYSLTISSVEAEDAATYYCQQYSGYPYTFGGGTKLEIK"
  experimental.result: 1940
- binder: "25E3B5 (antibody, V domains shown, Murine hybridoma antibody purified on protein G) VH: QVQLQQPGTALVRPGSSVKLSCKASGYTFTSYWMHWVRQRPIKGLEWIGNIDPSDSETHYNQRFKDKVTLTVDKSSNTAYMQLSSLTSEDSAVYYCARWKYHGIGAMDYWGQGTSVTVSS VL: DVQITQSPSYLAASPGETVTISCRTNRNISKFLAWYQEKPGKTNKLLIYSGSTLHSGIPSRFSGSGSGTDFTLTISRLEPEDFAMYYCQQHNEYPWSFGGGTKLEIK"
  experimental.result: 1560
- binder: "132D1E5 (antibody, V domains shown, Murine hybridoma antibody purified on protein G) VH: QVQLQQPGAELVRPGSSVKLSCKASGYTFTNNWMHWVKQRPLQGLEWIGNIDPSDSETHYNQKFKDKATLTVDKSSTTAYIQLSSLTSEDSAVYYCARWRGGGRGAMDYWGQGTSVTVSS VL: DVQITQSPSYLAASPGETITINCRTSKNISKFLAWYQEKPGKTNKLLIYSGSTLQSGIPSRFSGSGSGTDFTLTISNLEPEDFAMYYCQQHNEYPWTFGRGTKLEIK"
  experimental.result: 1330

Data origin: patent US20220017615A1
